- MEASUREMENT_PROTOCOL: In vivo pharmacokinetic study after a single oral dose
- CONDITION_SUMMARY: dog; female beagle dogs, single oral dose 100 mg/kg at 1 h after feeding, plasma, mean

| ENTRY_SMILES | READING_UNIT | AUC(0-t) |
| --- | --- | --- |
| CC/C(=C(/c1ccc(OCCNC/C=C/C(=O)N(C)C)nc1)c1[nH]c2ccccc2c1Cl)c1ccccc1.Cl | µM·h | 229 |

====

- MEASUREMENT_PROTOCOL: In vivo pharmacokinetic study after a single oral dose
- CONDITION_SUMMARY: dog; female beagle dogs, single oral dose 100 mg/kg at 1 h after feeding, plasma, mean

| ENTRY_SMILES | Tmax, h |
| --- | --- |
| CC/C(=C(/c1ccc(OCCNC/C=C/C(=O)N(C)C)nc1)c1[nH]c2ccccc2c1Cl)c1ccccc1.Cl | 6 |

====

- MEASUREMENT_PROTOCOL: In vivo pharmacokinetic study after a single oral dose
- CONDITION_SUMMARY: dog; female beagle dogs, single oral dose 100 mg/kg at 1 h after feeding, plasma, mean
READOUT_NAME: Cmax (µM)

| ENTRY_SMILES | READING_UNIT | EXPERIMENTAL_RESULT |
| --- | --- | --- |
| CC/C(=C(/c1ccc(OCCNC/C=C/C(=O)N(C)C)nc1)c1[nH]c2ccccc2c1Cl)c1ccccc1.Cl | µM | 14 |

====

Listing of recorded solubility at 24 h by entry.
- MEASUREMENT_PROTOCOL: Solubility of crystalline forms (supersaturated suspension shaken at 37° C. for 24 h, HPLC-UV)
- Assay type: physicochemical
- CONDITION_SUMMARY: thermodynamic from solid, Vehicle: FeSSIF (fed state simulated intestinal fluid), 800 rpm

| ENTRY_SMILES | solubility at 24 h, µg/mL |
| --- | --- |
| CC/C(=C(/c1ccc(OCCNC/C=C/C(=O)N(C)C)nc1)c1[nH]c2ccccc2c1Cl)c1ccccc1.O=C(O)/C=C/C(=O)O | 1950 |
| CC/C(=C(/c1ccc(OCCNC/C=C/C(=O)N(C)C)nc1)c1[nH]c2ccccc2c1Cl)c1ccccc1.Cl | 1900 |
| Br.CC/C(=C(/c1ccc(OCCNC/C=C/C(=O)N(C)C)nc1)c1[nH]c2ccccc2c1Cl)c1ccccc1 | 1370 |
| CC/C(=C(/c1ccc(OCCNC/C=C/C(=O)N(C)C)nc1)c1[nH]c2ccccc2c1Cl)c1ccccc1 | 316 |
